System: HS 578T breast
Assay: NCI tumour cell line growth inhibition, 48 h
MEASURED_ATTRIBUTE: TGI

Give TGI for Nc1nnc(Cn2c(-c3ccccc3)nc3ccc(Br)cc3c2=O)s1
> 100 µM

Give TGI for C=C(Cl)C(=C)CCC(Cl)C(C)C (stereo not given)
> 100 µM

Give TGI for CC(=O)[O][Hg][c]1ccccc1
1.67 µM

Give TGI for COc1ccccc1S(=O)(=O)Nc1ccc2c(c1)CN(C)C(=O)N2
> 100 µM

Give TGI for CC1(C)CC(=O)c2c(nc(SSc3nc4c(c(-c5ccccc5)c3C#N)C(=O)CC(C)(C)C4)c(C#N)c2-c2ccccc2)C1
> 10 µM

Give TGI for CN(CCCNC(=O)c1nn(-c2ccc(Cl)cc2Cl)c2c1ccc1ccccc12)CCCNC(=O)c1nn(-c2ccc(Cl)cc2Cl)c2c1ccc1ccccc12
3.18 µM

Give TGI for Cc1cc(OCC(=O)N/N=C/C(Br)=C/c2ccccc2)nc(SCC(=O)N/N=C/C(Br)=C/c2ccccc2)n1
> 100 µM

Give TGI for Cc1ccc(/C=C/C(=O)c2cc(CN(C)C)c(O)c(CN(C)C)c2)cc1
86.7 µM

Give TGI for NC(=O)NC(=O)c1cccc(NC(=O)CBr)c1
< 0.0505 µM

Give TGI for C=C1C(=O)O[C@H]2[C@H]1CC(=O)/C(C)=C/CC[C@@]1(C)O[C@@H]21
8.62 µM

====

Provide the reported TGI of each item.
Test system: HT29 colon
Assay: NCI tumour cell line growth inhibition, 48 h

Give TGI for COC(=O)[C@@H]1C[C@@H]2c3ccccc3N(S(=O)(=O)c3ccccc3)[C@@H]2N1C(=O)OC
> 100 µM

Give TGI for O=C(c1ccc(Br)cc1)n1c2ccc(Br)cc2c2nc3ccccc3nc21
> 100 µM

Give TGI for CN(CCCNC(=O)c1nn(-c2ccc(Cl)cc2Cl)c2c1ccc1ccccc12)CCCNC(=O)c1nn(-c2ccc(Cl)cc2Cl)c2c1ccc1ccccc12
3.04 µM

Give TGI for Nc1nnc(Cn2c(-c3ccccc3)nc3ccc(Br)cc3c2=O)s1
> 100 µM

Give TGI for O=C1NC(N2CCCC(CO)C2)=N/C1=C\c1ccc(Cl)cc1 (stereo not given)
> 100 µM

====

Test system: MOLT-4 leukemia
Experiment: NCI tumour cell line growth inhibition, 48 h; in the data active = GI50 below about 0.43 µM; inactive = the rest
Outcome field: choose from true (1) for active, false (0) for inactive

Which outcome was assigned to C=C(C)[C@@H]1CC[C@]2(COC3CCCCO3)CC[C@]3(C)[C@H](CC[C@@H]4[C@@]5(C)C=C(C=O)C(=O)C(C)(C)[C@@H]5CC[C@]43C)[C@@H]12 (some centres undefined) in this test?
false (0)

Which outcome was assigned to CCCCC#CC#Cc1cccc(=O)o1 in this test?
false (0)

Which outcome was assigned to CC(=O)[O][Hg][c]1ccccc1 in this test?
true (1)

Which outcome was assigned to COc1ccc(-c2cc(-c3cc(OC)c(OC)c(OC)c3)c(C#N)c(N3CCOCC3)n2)cc1O in this test?
false (0)

Which outcome was assigned to COc1cc2nc3cc([N+](=O)[O-])ccc3c(NCCCNCC(C)(C)O)c2cc1OC in this test?
true (1)

Which outcome was assigned to O=C1CCc2c(sc3[nH]c(=S)n(Cc4ccccc4)c(=O)c23)C1 in this test?
false (0)

Which outcome was assigned to CN(C[C@@H]1COCCO1)S(=O)(=O)Nc1ccc2ccc3ncc(-c4cnn(C)c4)cc3c(=O)c2c1 in this test?
false (0)

Which outcome was assigned to CCC(C(=O)[O-])C(=O)[O-].CCC(C(=O)[O-])C(=O)[O-].N.N.NCCCCCCN.[Pt+4].[Pt+4] in this test?
false (0)

Which outcome was assigned to Cc1nc(N)sc1C(=O)Nc1cc(C(=O)NCCCN(C)C)n(C)c1 in this test?
false (0)

====

System: HT29 colon
Assay: NCI tumour cell line growth inhibition, 48 h; in the data active = GI50 below about 0.43 µM; inactive = the rest
Outcome field: choose from active, inactive

Which outcome was assigned to COc1ccc(C(=O)COc2cccc(/C=C3\CSc4ccc(C)cc4C3=O)c2)cc1 in this test?
inactive

Which outcome was assigned to CCC[CH2][Sn]([CH2]CCC)([O]C(=O)C1CCC(=O)N1)[O]C(=O)C1CCC(=O)N1 (stereo not given) in this test?
inactive

Which outcome was assigned to Cc1nc2n(c(=O)c1CCN1CCC(c3noc4cc(F)ccc34)CC1)CCCC2 in this test?
inactive

Which outcome was assigned to O=C1/C(=C/c2ccccc2)CN(C(=O)OCc2ccccc2)C/C1=C\c1ccccc1 in this test?
inactive

Which outcome was assigned to O=C(CCCCCCSc1nc(-c2ccc(Cl)cc2)cc(-c2ccc(Cl)cc2)n1)NO in this test?
inactive

Which outcome was assigned to CCCCCCCCCCCCOC1C(CNC(=O)C2OC3OC(C)(C)OC3C2NC(=O)CN2CCCCCC2)OC2OC(C)(C)OC21 (stereo not given) in this test?
inactive

Which outcome was assigned to COc1ccc(-c2ccc(/C=N/n3c(C)nn(CN4CCN(C)CC4)c3=S)o2)c([N+](=O)[O-])c1 in this test?
inactive

Which outcome was assigned to O=C1C(Cl)=C(Nc2cccc(O)c2)C(=O)N1c1ccccc1Cl in this test?
inactive

Which outcome was assigned to CCCCCCCC(=O)SCC/C=C/[C@@H]1CC(=O)NCc2nc(co2)C2=N[C@@](C)(CS2)C(=O)N[C@@H](C(C)C)C(=O)O1 in this test?
active

Which outcome was assigned to Nc1nc(N)c2nc(CNc3ccc(C(=O)NC(CCCNC(=O)c4ccccc4C(=O)O)C(=O)O)cc3)cnc2n1 (stereo not given) in this test?
active

====

Test system: HT29 colon
Test: NCI tumour cell line growth inhibition, 48 h; in the data active means GI50 below about 0.43 µM; inactive means the rest
Outcome field: choose from true = active, false = inactive

Which outcome was assigned to O=C([O-])c1ccc(C(=O)[O-])cc1.O=C([O-])c1ccc(C(=O)[O-])cc1.[Mo+2].[Mo+2] in this test?
false

Which outcome was assigned to COc1ccc(Cn2cc3c(c2-c2cc(OC)c(OC)c(OC)c2)CCc2cnoc2-3)cc1[N+](=O)[O-] in this test?
true

Which outcome was assigned to C=C(C)[C@@H]1CC[C@]2(COC3CCCCO3)CC[C@]3(C)[C@H](CC[C@@H]4[C@@]5(C)C=C(C=O)C(=O)C(C)(C)[C@@H]5CC[C@]43C)[C@@H]12 (some centres undefined) in this test?
false

Which outcome was assigned to COc1ccc(-c2cc(-c3cc(OC)c(OC)c(OC)c3)c(C#N)c(N3CCOCC3)n2)cc1O in this test?
false

Which outcome was assigned to Cc1ccc(S(=O)(=O)Cc2nc(-c3ccc(C(=O)NCc4cccnc4)cc3)oc2C)cc1 in this test?
true

Which outcome was assigned to COc1ccc2c(c1)[n+](=O)c(C(=O)/C=C/c1cc(OC)c(OC)c(OC)c1)c(C)n2[O-] in this test?
false

Which outcome was assigned to CCCCn1sc(=O)n(Cc2ccc(CNC(=O)OCc3ccc4c(Br)cc(Br)c(O)c4n3)cc2)c1=O in this test?
false

Which outcome was assigned to CC(=O)[O][Hg][c]1ccccc1 in this test?
false

Which outcome was assigned to CC1=C[S+](c2ccccc2)c2cccc3cc4ccccc4c1c23 (centres undefined) in this test?
true

====

Test system: SK-MEL-28 melanoma
Experiment: NCI tumour cell line growth inhibition, 48 h
MEASURED_ATTRIBUTE: TGI

Give TGI for Cn1c(=S)c2[nH]c(SCCN3CCCC3)nc2n(C)c1=O
> 100 µM

Give TGI for N[C@@H]1CCCN(c2c(/C=C3\SC(=O)NC3=O)cccc2-c2ccccc2)C1
27.8 µM

Give TGI for C[C@H]1C(Oc2ccc(O)cc2)OC2OC3(C)CCC4[C@H](C)CCC1C24OO3 (stereo partly specified)
39.5 µM

Give TGI for NC(=O)/C=C/NC(=O)/C=N\O
> 100 µM

Give TGI for NC(=O)c1[nH]cnc1/N=N/SCC(N)C(=O)O (stereo unspecified)
> 100 µM

Give TGI for COc1ccc(-c2ccc(/C=N/n3c(C)nn(CN4CCN(C)CC4)c3=S)o2)c([N+](=O)[O-])c1
> 100 µM

====

Test system: HOP-62 NSCLC
Test: NCI tumour cell line growth inhibition, 48 h
MEASURED_ATTRIBUTE: TGI (µM)
API: value field is a number in µM; no unit string.

Report TGI on HOP-62 NSCLC for this entry: COC(=O)[C@@]12OC[C@]34C([C@@H](O)C1O)[C@@]1(C)CC(=O)C(OC(=O)/C=C(/c5ccccc5)C(F)(F)F)=C(C)C1C[C@H]3OC(=O)[C@H](O)[C@H]42 (stereo partly specified)
46.1

Report TGI on HOP-62 NSCLC for this entry: CCCCC#CC#Cc1cccc(=O)o1
34.4

Report TGI on HOP-62 NSCLC for this entry: CCCCS(=O)(=O)Nc1ccc(Nc2c3ccccc3nc3ccccc23)c(OC)c1
10.7

Report TGI on HOP-62 NSCLC for this entry: c1ccc(C[n+]2cccc(-c3cc4ccccc4[nH]3)c2)cc1
96.4

Report TGI on HOP-62 NSCLC for this entry: O=C(/C=C/c1ccc(O)c(O)c1O)OCCc1ccccc1
55.5

Report TGI on HOP-62 NSCLC for this entry: CN(CCCl)c1ccc(/C=C/C2=[N+](C)c3ccccc3C2(C)C)cc1
10.9

Report TGI on HOP-62 NSCLC for this entry: N=C(N)SCc1cccc2c(=O)cc(-c3ccccc3)oc12
44.8

Report TGI on HOP-62 NSCLC for this entry: COc1ccc(-c2c(-c3cc(OC)c4c(c3)OCO4)noc2N)cc1
37.1

Report TGI on HOP-62 NSCLC for this entry: CN(CCCNC(=O)c1nn(-c2ccc(Cl)cc2Cl)c2c1ccc1ccccc12)CCCNC(=O)c1nn(-c2ccc(Cl)cc2Cl)c2c1ccc1ccccc12
3.31
